- Tested on: Tov112D
- assay.info: Primary qHTS to identify gynecologic anti-cancer compounds using libraries of approved drugs and bioactive compounds (AID 1345084); further: nearly all actives have a fitted effect of over 55% in size
- condition.parameters: Gynecologic cancer cell panel viability, ATPlite luminescence, 48 h; series mostly up to 57.5 µM
Records with an inconclusive call do not appear. Activity calls are given as the source filed them. The call rests on the fitted dose curve; in most records, active means well fitted cell-killing curve with a large enough effect; inconclusive means small, poorly fitted or top-dose-only effect, or effect the other way; inactive means flat fitted curve, though single readings scatter.
Outcome codes: active, inactive

compound	qualitative.label
COc1ccc(/C=C/C(=O)O[C@@H]2[C@@H](O)[C@H](C)O[C@@H](O[C@H]3[C@@H]4C=CO[C@@H](O[C@H]5O[C@@H](CO)[C@H](O)[C@@H](O)[C@@H]5O)[C@@H]4[C@@]4(CO)O[C@@H]34)[C@@H]2OC(C)=O)cc1	inactive
CN(CCc1ccc(Nc2ncc(-c3cccnc3)s2)cc1)Cc1ccccc1	inactive
COc1ccc(-c2nc(-c3ccc(-c4cccc(Cl)c4)o3)[nH]c2-c2ccc(OC)cc2)cc1	inactive
OC1CCC(Nc2ncc3nc(Nc4c(F)cc(F)cc4F)n([C@H]4CCOC4)c3n2)CC1 (stereo partly drawn)	inactive
CC1(C)CC2C=C(C(=O)O)C3COC(=O)C(O)(CO)C23C1 (stereo not drawn)	inactive
O=C(O[C@H]1[C@@H]2C[C@@H]3OC[C@](O)([C@@H]1Cl)[C@H]2C(O[C@@H]1O[C@H](CO)[C@@H](O)[C@H](O)[C@H]1O)O3)c1ccc(O)c(O)c1 (stereo partly drawn)	inactive
C[S+](CC[C@H](N)C(=O)[O-])C[C@H]1O[C@@H](n2cnc3c(N)ncnc32)[C@H](O)[C@@H]1O (stereo partly drawn)	inactive
CCn1cc(NC(=S)Nc2cc(Cl)ccc2OC)c(C(N)=O)n1	inactive
CC(O)(CC(=O)O)CC(=O)OCc1ccc(O[C@@H]2O[C@H](CO)[C@@H](O)[C@H](O)[C@H]2O)cc1 (stereo partly drawn)	inactive
CC1=CC(=O)C2(OC3OC(C)C(O)C(OC(=O)/C=C/c4ccccc4)C3O)C=COC(OC3OC(CO)C(O)C(O)C3O)C12 (stereo not drawn)	inactive
O=C(/C=C/c1ccc(O)cc1)OC1[C@H](O)CC(O)(C(=O)O)C[C@H]1O (stereo partly drawn)	inactive
Nc1nc2c(c(N3CCNCC3)n1)CCC1=C2[C@@H]2CCCC[C@@H]2O1	inactive
CC(C)C(CO)Nc1nc(Nc2ccc(C(=O)O)c(Cl)c2)c2ncn(C(C)C)c2n1 (stereo not drawn)	inactive
CC(=O)OC1C(O)C2C(C)C3=CC(=O)OC3(O)CC2C2(C)CCCC(C)(CO)C12 (stereo not drawn)	inactive
O=C(c1cn(Cc2cncn2Cc2ccc(Br)cc2)cc1-c1cccc2ccccc12)N1CCOCC1	inactive
CC(C)[N+]1(C)C2CCC1CC(OC(=O)C(CO)c1ccccc1)C2 (stereo not drawn)	inactive
CC1CC(O)/C=C/C(O)C(O)CC(=O)Cc2c(Cl)c(O)cc(O)c2C(=O)O1 (stereo not drawn)	inactive
CC[C@H](C)[C@H](NC(=O)[C@H]([C@@H](C)CC)N(C)C(C)=O)C(=O)N[C@H](C(=O)N[C@@H](CC(C)C)C(=O)[C@@]1(C)CO1)[C@@H](C)O	active
C[C@H](NC(c1cccc2[nH]c(=O)c(=O)[nH]c12)P(=O)(O)O)c1ccc(Br)cc1 (stereo partly drawn)	inactive
C[C@@H]1CC[C@]2(C(=O)OC3OC(CO)C(O)C(O)C3O)CC[C@]3(C)C(=CCC4[C@@]5(C)CC[C@H](O)[C@](C)(C(=O)O)C5CC[C@]43C)C2[C@]1(C)O (stereo partly drawn)	inactive
C=C1C(=O)OC2CC(C)=C(C(C)CCCO)C(O)C12 (stereo not drawn)	inactive
COc1ccc(C2=N[C@@H](c3ccc(Cl)cc3)[C@@H](c3ccc(Cl)cc3)N2C(=O)N2CCNC(=O)C2)c(OC(C)C)c1	inactive
CC(C)c1nnc(-c2ccc(-c3ccccc3)nc2)n1-c1cccc2nonc12	inactive
C=C[C@H]1[C@H](O[C@@H]2O[C@H](CO)[C@@H](O)[C@H](O)[C@H]2O)OC=C(C(=O)OC)[C@H]1C[C@@H]1c2cc(O)c(O)cc2CCN1C(C)=O	inactive
C[C@]12C[C@@H](O)[C@@H]3C[C@@]1(O[C@@H]1O[C@H](CO)[C@@H](O)[C@H](O)[C@H]1O)[C@]3(COC(=O)c1ccccc1)C(=O)O2	inactive
COC1=CC(=O)CC(C)C12Oc1cc(OC)cc(O)c1C2=O (stereo not drawn)	inactive
OC[C@H]1O[C@@H](Oc2ccccc2)[C@H](O)[C@@H](O)[C@@H]1O	inactive
CC/C=C/CC1=C(CCCCC(CCC(=O)O)OC(C)=O)CCC1=O (stereo not drawn)	inactive
CS(=O)(=O)N1CCC(NC(=O)c2[nH]ncc2NC(=O)c2c(Cl)cccc2Cl)CC1	active
CC(C)CN(C[C@@H](O)[C@H](Cc1ccccc1)NC(=O)O[C@@H]1CO[C@H]2OCC[C@H]21)S(=O)(=O)c1ccc(N)cc1	inactive
Fc1ccc2nc(CCC#Cc3ccccn3)cn2c1	inactive
C=C1C(OC2OCC(O)C(O)C2O)CC2C(C)(C)C(O)CCC2(C)C1CC/C(C)=C\CO (stereo not drawn)	inactive
Cn1c(=O)cc(N2CCCC(N)C2)n(Cc2cc(F)ccc2C#N)c1=O (stereo not drawn)	inactive

====

- assay.info: Primary qHTS for inhibitors of nuclear receptor binding SET domain protein 2 (NSD2) in an RCH-ACV wild type WT cells (2C) (AID 1645877); further: nearly all actives have a fitted effect of over 70% in size
- condition.parameters: RCH-ACV (leukaemia line) NSD2 WT (2C) viability, CellTiter-Glo, 72 h; series mostly up to 44.9 µM
Inconclusive results are not listed. Calls of active or inactive are those of the source. The call rests on the fitted dose curve; in most records, active means well fitted inhibition curve with a large enough effect; inconclusive means small, poorly fitted or top-dose-only effect; inactive means no such curve, though single readings can be large or run the other way.
Outcome codes: active, inactive

molecule	qualitative.label
CCN(CC)c1ccc2c(O)c(C=Nc3ccc(CC(=O)O)c(-c4c5c(nc6ccccc46)CCC(C(=O)NN)C5)c3)c(=O)oc2c1 (centres undefined)	active
COc1cc(/C=C/CO)cc(OC)c1O[C@@H]1O[C@H](CO[C@@H]2O[C@H](CO)[C@@H](O)[C@H](O)[C@H]2O)[C@@H](O)[C@H](O)[C@H]1O	inactive
COc1ccc(-c2cnc3ccc(NCc4ccc(S(N)(=O)=O)cc4)nn23)cc1OC	active
Cc1c(NC(=O)c2cc(C(N)=O)nc3cc(F)ccc23)c(C(F)(F)F)nn1Cc1ccc(C#N)cc1	inactive
CC(C)C(CO)Nc1nc(Nc2cc(N)cc(Cl)c2)c2ncn(C(C)C)c2n1 (centres undefined)	active
Cc1ccc(Cc2c(C)nc3nc(SCC(=O)NCCN4CCNCC4)nn3c2C)cc1	inactive
CC(C)C(N)C(=O)OCCOCn1cnc2c(=O)[nH]c(N)nc21 (centres undefined)	inactive
c1ccc(-c2ncc(CN3CCN(c4ncccn4)CC3)[nH]2)cc1	inactive
O=C(O)c1cccc(S(=O)(=O)N2CCc3ccccc3C2)c1	inactive

====

- Tested on: Nanoluciferase (engineered Oplophorus gracilirostris luciferase)
- assay.info: Primary Nanoluciferase (NLuc) qHTS assay for identification of artifact compounds. (AID 1845222);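 further: NLuc secreted into diluted conditioned medium of S16 cells; 0% = DMSO and -100% = no enzyme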
- condition.parameters: NLuc-conditioned medium, Nano-Glo luminescence, 5 min; series mostly up to 54.1 µM
The source made the active and inactive calls. The call rests on the fitted dose curve; in most records, active means well fitted inhibition curve with a large enough effect; inconclusive means small, poorly fitted or top-dose-only effect; inactive means flat fitted curve, though single readings scatter.

item.smiles	assayed.target	activity, negative = inhibition
O=C1CSc2ccccc2N1Cc1cccc(C(F)(F)F)c1	Nanoluciferase (engineered Oplophorus gracilirostris luciferase)	inactive
CCCC(=O)C1CCN(c2ncnc3c2CN(C(=O)c2ccc(-c4ccccc4)cc2)CC3)CC1	Nanoluciferase (engineered Oplophorus gracilirostris luciferase)	inactive
O=C(O)/C=C/c1ccc(O)c(O[C@@H]2O[C@H](CO)[C@@H](O)[C@H](O)[C@H]2O)c1	Nanoluciferase (engineered Oplophorus gracilirostris luciferase)	inactive
CC(C)(C)C(=O)CN1C(=O)[C@H](NC(=O)Nc2cccc(C(=O)O)c2)CN(C2CCCCC2)c2ccccc21	Nanoluciferase (engineered Oplophorus gracilirostris luciferase)	inactive
COC(=O)N[C@H](C(=O)N1[C@@H]2CC[C@@H](C2)[C@H]1c1nc2ccc(-c3ccc4c(c3)C(F)(F)c3cc(-c5cnc([C@@H]6CCC7(CC7)N6C(=O)[C@@H](NC(=O)OC)C(C)C)[nH]5)ccc3-4)cc2[nH]1)C(C)C	Nanoluciferase (engineered Oplophorus gracilirostris luciferase)	inactive

====

- Test system: KB-3-1
- assay.info: Cytotoxic Profiling of Annotated Libraries Using Quantitative High-Throughput Screening (AID 1296008); further: nearly all actives have a fitted effect of over 60% in size
- condition.parameters: Five cell lines viability, CellTiter-Glo ATP luminescence, 48-72 h
Results filed as inconclusive are left out. The source made the active and inactive calls. Calls come from the whole dose curve; as a rule, active = well fitted inhibition curve with a large enough effect; inconclusive = small, poorly fitted or top-dose-only effect; inactive = flat fitted curve, though single readings scatter.
Outcome codes: class 1 = active, class 0 = inactive

compound	assayed.target	qualitative.label
NC(=O)Nc1cc(-c2cccc(F)c2)sc1C(=O)NC1CCCNC1 (configuration not stated)	KB-3-1	class 1
O=C(Nc1ccc(Cl)cc1F)c1ccccc1O	KB-3-1	class 1
Cc1c(C(=O)N2CCOc3ccc(-c4ccc(N)nc4)cc3C2)ccc(S(C)(=O)=O)c1F	KB-3-1	class 1
CC1=C2C(O)C(=O)OC(c3ccoc3)C2(C)CCC1O (configuration not stated)	KB-3-1	class 0
CCC[C@@H]1O[C@@H]2C[C@H]3[C@@H]4CCC5=CC(=O)C=C[C@]5(C)[C@H]4[C@@H](O)C[C@]3(C)[C@]2(C(=O)CO)O1	KB-3-1	class 0
CC(C)C(CO)Nc1nc(Nc2cc(N)cc(Cl)c2)c2ncn(C(C)C)c2n1 (configuration not stated)	KB-3-1	class 1
O=[N+]([O-])c1cccc2[nH]c(CNc3nc(N4CCOCC4)nc4c3ncn4-c3ccsc3)nc12	KB-3-1	class 1
O=C1NC(=O)C(c2cn(-c3ccccc3)nc2-c2ccc(F)cc2)N1 (configuration not stated)	KB-3-1	class 0
Cc1cc(N(C)C)ccc1-c1nc2ccc(-c3nc4ccc(N5CCN(C)CC5)cc4[nH]3)cc2[nH]1	KB-3-1	class 1
C[C@@H]1O[C@@H](OC[C@H]2O[C@@H](OC(CCCCc3ccc(O)cc3)CCc3ccc(O)cc3)[C@H](O)[C@@H](O)[C@@H]2O)[C@H](O)[C@H](O)[C@H]1O (some centres not stated)	KB-3-1	class 0
COc1cc2ncnc(Nc3ccc(F)c(Cl)c3)c2cc1NC(=O)/C=C/CN1CCCCC1	KB-3-1	class 1
COc1nc2sc(C(=O)NC3CC3)c(N)c2c(C)c1Cl	KB-3-1	class 0
CC(C(O)/C=C/C(C)(C)O)C1CCC2(C)C3C(=O)C=C4C(CCC(O)C4(C)C)C3(C)CCC12C (configuration not stated)	KB-3-1	class 0
Nc1nc2c(ncn2[C@@H]2O[C@@H]3COP(=O)(O)O[C@H]3[C@H]2O)c(=O)[nH]1	KB-3-1	class 0
CCC(Nc1ncnc2nc[nH]c12)c1nc2cccc(F)c2c(=O)n1-c1ccccc1 (configuration not stated)	KB-3-1	class 0
CNC(=O)c1cccc(-c2ccc3c(N4CCOC[C@@H]4C)nc(N4CCOC[C@@H]4C)nc3n2)c1	KB-3-1	class 1
CN(c1ccccc1CNc1nc(Nc2ccc3c(c2)CC(=O)N3)ncc1C(F)(F)F)S(C)(=O)=O	KB-3-1	class 1
O=C(O)/C=C/c1ccc(O)c(O[C@@H]2O[C@H](CO)[C@@H](O)[C@H](O)[C@H]2O)c1	KB-3-1	class 0
C=C1CC[C@@H]2[C@@](C)(CO[C@@H]3O[C@H](CO)C(O)[C@H](O)C3O)[C@H](O)CC[C@@]2(C)[C@@H]1CC/C(C)=C/CO (some centres not stated)	KB-3-1	class 0
CC(=O)OCC1(O)CCC2C(COC3OC(CO)C(O)C(O)C3OC(=O)/C=C/c3ccc(O)cc3)=COC(OC(=O)CC(C)C)C21 (configuration not stated)	KB-3-1	class 0
CC(C)=CCC[C@](C)(O)[C@H]1CC[C@]2(C)[C@@H]1[C@H](O)CC1[C@@]3(C)CC[C@H](O)C(C)(C)C3[C@@H](O[C@@H]3O[C@H](CO)[C@@H](O)[C@H](O)[C@H]3O[C@@H]3OC[C@@H](O)[C@H](O)[C@H]3O)C[C@]12C (some centres not stated)	KB-3-1	class 0
OC1CCC(Nc2ncc3nc(Nc4c(F)cc(F)cc4F)n([C@H]4CCOC4)c3n2)CC1 (some centres not stated)	KB-3-1	class 0
CC[C@H](CO)Nc1nc(NCc2ccc(-c3ccccn3)cc2)c2ncn(C(C)C)c2n1	KB-3-1	class 1
CO[C@H]1O[C@@H]2O[C@]3(C)CC[C@H]4[C@H](C)CC[C@@H]([C@H]1C)[C@@]24OO3	KB-3-1	class 0
COc1cc(Nc2nc3ccccc3nc2NS(=O)(=O)c2ccc(NC(=O)c3ccc(OC)c(C)c3)cc2)cc(OC)c1	KB-3-1	class 0
C=CC1C(OC2OC(CO)C(O)C(O)C2O)OC=C(C(=O)OC)C1CC(=O)OCC1C(C)C(O)CC1C(CO)COC(=O)CC1C(C(=O)O)=COC(OC2OC(CO)C(O)C(O)C2O)/C1=C\C (configuration not stated)	KB-3-1	class 0
CC(C)(C)c1ccc(S(=O)(=O)Nc2ccc(Cl)cc2C(=O)c2cc[n+]([O-])cc2)cc1	KB-3-1	class 0
C=CC(C)(CC/C=C(\C)C(=O)OC)OC1OC(COC(=O)CC(C)(O)CC(=O)O)C(OC2OC(CO)C(O)C(O)C2O)C(O)C1O (configuration not stated)	KB-3-1	class 0
CC(=O)O[C@H]1[C@H](O[C@H]2[C@@H]3C=CO[C@@H](O[C@@H]4O[C@H](CO)[C@@H](O)[C@H](O)[C@H]4O)[C@@H]3[C@@]3(CO)O[C@@H]23)O[C@@H](C)[C@H](OC(=O)/C=C/c2ccccc2)[C@H]1OC(=O)/C=C/c1ccccc1	KB-3-1	class 0
Cc1ccc(NC(=O)Nc2cc(C(F)(F)F)ccc2F)cc1Nc1ccc2c(c1)NC(=O)/C2=C\c1ccc[nH]1	KB-3-1	class 1
Cc1cc(OCc2nc(-c3ccccc3Cl)cs2)ccc1OCC(=O)O	KB-3-1	class 0
CC(Oc1cc(-n2cnc3ccc(CN4CCN(C)CC4)cc32)sc1C(N)=O)c1ccccc1C(F)(F)F (configuration not stated)	KB-3-1	class 1
